Hey, just so you know, these numbers are from patent US7060716B2.

- target-system: human tryptase (Homo sapiens, UniProt P20231)
- Construct: from tissue
- Sequence (P20231 31-275): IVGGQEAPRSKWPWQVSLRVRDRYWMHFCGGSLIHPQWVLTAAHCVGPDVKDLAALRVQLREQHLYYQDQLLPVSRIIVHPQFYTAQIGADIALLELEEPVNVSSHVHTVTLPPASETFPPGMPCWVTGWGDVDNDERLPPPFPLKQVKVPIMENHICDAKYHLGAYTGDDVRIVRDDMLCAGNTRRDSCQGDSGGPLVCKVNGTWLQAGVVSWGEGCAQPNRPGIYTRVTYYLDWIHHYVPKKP
- assay-explanation: Inhibition of human tryptase (apparent dissociation constant Kiapp, chromogenic substrate tos-Gly-Pro-Arg-pNA)
- Type: biochemical
- condition: apparent dissociation constant in the presence of substrate; heparin 0.1–50 μg/ml; equilibrium conditions; read-out: Klapp
Where a name gives a salt, the structure may show the parent alone.
recorded-endpoint: Ki

NCc1cccc(CNC(=O)OCC#Cc2cccc(C#CCOC(=O)NCc3cccc(CN)c3)n2)c1 [Compound 1, trihydrochloride]; 2.6 nM

So for NCc1ccc(CNC(=O)OCC#Cc2cccc(C#CCOC(=O)NCc3ccc(CN)cc3)n2)cc1 [Compound 2, trihydrochloride] , the logged Ki turned out to be 6 nM
